Numbers sourced from paper PMC3747139.

molecular target: HQF DNA d(TTAGGG)4; test: Isothermal titration calorimetry; assay type: binding, human; settings: ITC, quadruplex DNA; read-out: Kd, higher affinity interaction (mode-1)
Readout: Kd

Cc1cn([C@H]2C[C@H](n3cc(-c4ccccc4)nn3)[C@@H](CO)O2)c(=O)[nH]c1=O [Ligand L2] | ~100 nM

# evaluate next
Fill in the blank: the reported Kd of Cc1cn([C@H]2C[C@H](n3cc(-c4ccc(Cl)cc4)nn3)[C@@H](CO)O2)c(=O)[nH]c1=O [Ligand L3] is ____.
~100 nM

* * *

Task for the reader: assign each of the following compounds its reported viability at 48 h.
test: Cell count assay (trypan blue); format: cell-based; design: concentration or dose not given beside the values; settings: human, NCM-460 cells (normal cell line); NCM-460, 48 h; read-out: Number of viable cells after 48 h of ligand treatment

Look over these answered cases.
CCCCc1nnn(Cc2ccccc2)c1-c1cccc(O)c1 | 50 to 60%
CCOC(=O)c1nnn(Cc2ccccc2)c1/C=C/c1ccccc1 | 50 to 60%
Cc1cn([C@H]2C[C@H](n3cc(-c4ccc(Cl)cc4)nn3)[C@@H](CO)O2)c(=O)[nH]c1=O | 50 to 60%

Next, consider the following compound.
What does the record list as viability at 48 h for Oc1cccc(-c2c(-c3ccccc3)nnn2CC2CCCCO2)c1 (stereo not shown) ?
80 to 90%

* * *

molecular target: QF DNA; assay: Stop assay (inhibition of in vitro DNA synthesis) with QF DNA; settings: competitive inhibition against dNTPs, Taq polymerase; read-out: inhibition constant (Ki), Cheng-Prusoff equation
Readout: pKi
One number for each entry, as −log10 of the molar value.

Example cases with answers are listed next.
Cc1cn([C@H]2C[C@H](N=[N+]=[N-])[C@@H](CO)O2)c(=O)[nH]c1=O [Ligand L1, reference compound] | 5.53
Cc1cn([C@H]2C[C@H](n3cc(-c4ccccc4)nn3)[C@@H](CO)O2)c(=O)[nH]c1=O [Ligand L2] | 5.74

Switching to the query record.
Bench note: what pKi did Cc1cn([C@H]2C[C@H](n3cc(-c4ccc(Cl)cc4)nn3)[C@@H](CO)O2)c(=O)[nH]c1=O [Ligand L3] show?
6.13

* * *

test: Cell count assay (trypan blue); type: cell-based; parameters: concentration or dose not given beside the values; conditions: human, NCM-460 cells (normal cell line); NCM-460, 24 h; read-out: Number of viable cells after 24 h of ligand treatment
Readout: viability at 24 h

# example entries with known answers
CCCCc1nnn(Cc2ccccc2)c1-c1cccc(O)c1 | 50 to 60%
C(=C\c1c(-c2ccccc2)nnn1CC1CCCCO1)/c1ccccc1 (centres unmarked) | 80 to 90%
COc1ccc(-c2c(-c3ccccc3)nnn2CC2CCCCO2)cc1 (centres unmarked) | 80 to 90%
Cc1cn([C@H]2C[C@H](n3cc(-c4ccccc4)nn3)[C@@H](CO)O2)c(=O)[nH]c1=O | 80 to 90%

// next entry
Could you tell me which viability at 24 h is on file for CCOC(=O)c1nnn(Cc2ccccc2)c1-c1cccc(O)c1 ?
80 to 90%

* * *

Test: Cell count assay (trypan blue)
Format: cell-based
Set-up: concentration or dose not given beside the values
Conditions: human, CRL-2120 cells (normal cell line); CRL-2120, 48 h; read-out: Number of viable cells after 48 h of ligand treatment
Experimental: Normal and tumor cell lines were seeded at 20000–40000 cells/cm^2 with 0.2 mL/cm^2 media and incubated for 48 h at 37°C, 6% CO2, 95% relative humidity. […] After 24 h and 48 h of incubation, cells were washed with 300 µl PBS or 0.02% EDTA, trypsinized, followed by harvesting at 37°C. 200 µl cell suspension was transferred into 1.5 ml microcentrifuge tube. To the cell suspension, 300 µl PBS followed by 500 µl of 0.4% trypan blue solution was added. […]
Exercise: for every item that follows, state its recorded viability at 48 h.

COc1ccc(-c2c(-c3ccccc3)nnn2CC2CCCCO2)cc1 (stereo not shown) | 80 to 90%

I'm hoping you can list viability at 48 h for every compound here, please.
1. Cc1cn([C@H]2C[C@H](N=[N+]=[N-])[C@@H](CO)O2)c(=O)[nH]c1=O [Ligand L1, reference compound]
2. Cc1cn([C@H]2C[C@H](n3cc(-c4ccccc4)nn3)[C@@H](CO)O2)c(=O)[nH]c1=O

1. 50 to 60%
2. 50 to 60%

Report viability at 48 h for each item below.
1. c1ccc(Cn2nnc(-c3ccccc3)c2-c2ccccc2)cc1
2. CCCCc1nnn(Cc2ccccc2)c1/C=C/c1ccccc1

["80 to 90%", "50 to 60%"]

Please state viability at 48 h for every compound in the list that follows.
1. Oc1cccc(-c2c(-c3ccccc3)nnn2CC2CCCCO2)c1 (stereo not shown)
2. C(=C\c1c(-c2ccccc2)nnn1CC1CCCCO1)/c1ccccc1 (stereo not shown)
3. Cc1cn([C@H]2C[C@H](n3cc(-c4ccc(Cl)cc4)nn3)[C@@H](CO)O2)c(=O)[nH]c1=O
4. c1ccc(-c2nnn(CC3CCCCO3)c2-c2ccccc2)cc1 (stereo not shown)

1. 80 to 90%
2. 80 to 90%
3. 50 to 60%
4. 50 to 60%

List viability at 48 h for every entry below, keeping the order given.
1. CCOC(=O)c1nnn(Cc2ccccc2)c1-c1cccc(O)c1
2. CCOC(=O)c1nnn(Cc2ccccc2)c1-c1ccccc1
3. CCOC(=O)c1nnn(Cc2ccccc2)c1/C=C/c1ccccc1
4. CCCCc1nnn(Cc2ccccc2)c1-c1cccc(O)c1

1: 80 to 90%; 2: 80 to 90%; 3: 80 to 90%; 4: 50 to 60%
